targetOrTestSystem: Alpha-1D adrenergic receptor (Rattus norvegicus, UniProt P23944)
Sequence (P23944 whole entry): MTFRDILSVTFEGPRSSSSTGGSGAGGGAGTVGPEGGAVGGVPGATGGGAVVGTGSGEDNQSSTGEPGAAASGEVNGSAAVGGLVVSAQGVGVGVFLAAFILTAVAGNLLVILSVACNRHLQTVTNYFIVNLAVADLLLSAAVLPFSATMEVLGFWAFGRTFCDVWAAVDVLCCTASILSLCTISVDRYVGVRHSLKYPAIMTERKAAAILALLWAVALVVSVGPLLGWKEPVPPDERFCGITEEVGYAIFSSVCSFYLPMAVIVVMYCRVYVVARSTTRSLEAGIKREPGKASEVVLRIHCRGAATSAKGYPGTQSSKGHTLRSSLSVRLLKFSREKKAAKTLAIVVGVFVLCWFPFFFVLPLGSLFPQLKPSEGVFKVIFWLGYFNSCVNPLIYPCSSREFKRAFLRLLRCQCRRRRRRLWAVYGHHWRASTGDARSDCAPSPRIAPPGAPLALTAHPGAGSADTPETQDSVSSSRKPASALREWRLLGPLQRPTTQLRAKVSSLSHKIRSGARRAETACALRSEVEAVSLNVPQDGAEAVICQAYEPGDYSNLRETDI
pKi: −log10 of the molar value.
pKi reference
propertyLabel: pKi

| compound | recordedValue |
| --- | --- |
| CCS(=O)(=O)Nc1cccc2c1CCCC2(O)c1c[nH]cn1 (stereo not drawn) | < 5.00 |
| CCS(=O)(=O)Nc1cccc(S(=O)(=O)c2c[nH]cn2)c1 | < 5.00 |
| CCS(=O)(=O)Nc1cccc2c1COC2c1c[nH]cn1 (stereo not drawn) | < 5.00 |
